- subjectOfTest: Beta-lactamase TEM (Escherichia coli) (UniProt P62593)
- Sequence (P62593 whole entry, looked up): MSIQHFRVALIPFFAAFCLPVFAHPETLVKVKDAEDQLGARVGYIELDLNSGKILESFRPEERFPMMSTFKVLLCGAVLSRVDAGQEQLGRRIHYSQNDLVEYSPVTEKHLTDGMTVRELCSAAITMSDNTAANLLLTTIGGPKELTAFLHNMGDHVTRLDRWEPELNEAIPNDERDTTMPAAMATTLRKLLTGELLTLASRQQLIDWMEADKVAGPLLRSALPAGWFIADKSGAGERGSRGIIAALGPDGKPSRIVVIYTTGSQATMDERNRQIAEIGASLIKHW
- experiment: In vitro inhibitory activity against Beta-lactamase TEM-1 of class A enzyme
pIC50: −log10 of the molar value.

>  <recordSmiles>
CC1(C)[C@H](C(=O)O)N2C(=O)[C@@]3(C[C@H]3OC3CCCCC3)[C@H]2S1(=O)=O

>  <subjectOfTest>
Beta-lactamase TEM (Escherichia coli) (UniProt P62593)

>  <cmp>
<

>  <pIC50>
4.89

$$$$
>  <recordSmiles>
CC(C)(C)[Si](C)(C)O[C@H]1C[C@@]12C(=O)N1[C@@H](C(=O)O)C(C)(C)S(=O)(=O)[C@@H]12

>  <subjectOfTest>
Beta-lactamase TEM (Escherichia coli) (UniProt P62593)

>  <cmp>
=

>  <pIC50>
4.77

$$$$
>  <recordSmiles>
CC1(C)[C@H](C(=O)O)N2C(=O)[C@]3(C[C@@H]3OC3CCCCC3)[C@H]2S1(=O)=O

>  <subjectOfTest>
Beta-lactamase TEM (Escherichia coli) (UniProt P62593)

>  <cmp>
=

>  <pIC50>
6.29

$$$$
>  <recordSmiles>
CC(C)(C)[Si](C)(C)O[C@@H]1C[C@@]12C(=O)N1[C@@H](C(=O)O)C(C)(C)S(=O)(=O)[C@@H]12

>  <subjectOfTest>
Beta-lactamase TEM (Escherichia coli) (UniProt P62593)

>  <cmp>
=

>  <pIC50>
4.92

$$$$
>  <recordSmiles>
CC1(C)[C@H](C(=O)O)N2C(=O)[C@@]3(C[C@@H]3OC3CCCCC3)[C@H]2S1(=O)=O

>  <subjectOfTest>
Beta-lactamase TEM (Escherichia coli) (UniProt P62593)

>  <cmp>
=

>  <pIC50>
5.77

$$$$
>  <recordSmiles>
CC(C)(C)[Si](C)(C)O[C@H]1C[C@]12C(=O)N1[C@@H](C(=O)O)C(C)(C)S(=O)(=O)[C@@H]12

>  <subjectOfTest>
Beta-lactamase TEM (Escherichia coli) (UniProt P62593)

>  <cmp>
=

>  <pIC50>
6.19

$$$$

The measurements presented in this section are drawn from BindingDB's records for doi:10.1021/jm034056q.
